Provenance of the data: patent US20250213584A1

# Tested on: H1299 cells
# measurement_description: MTS reduction assay, cisplatin cytotoxicity
# Type: cell-based, human
# measurement_context: 72-h incubation
measured_endpoint: pIC50
# reply with the number alone; pIC50 is -log10 of concentration in mol/L

Sample N.N.[Cl][Pt][Cl] [cisplatin] , system: H1299 cells. Its pIC50 is 5.43
